# target or test system: Streptokinase A (Streptococcus pyogenes serotype M1)
# Sequence (P10520 whole entry): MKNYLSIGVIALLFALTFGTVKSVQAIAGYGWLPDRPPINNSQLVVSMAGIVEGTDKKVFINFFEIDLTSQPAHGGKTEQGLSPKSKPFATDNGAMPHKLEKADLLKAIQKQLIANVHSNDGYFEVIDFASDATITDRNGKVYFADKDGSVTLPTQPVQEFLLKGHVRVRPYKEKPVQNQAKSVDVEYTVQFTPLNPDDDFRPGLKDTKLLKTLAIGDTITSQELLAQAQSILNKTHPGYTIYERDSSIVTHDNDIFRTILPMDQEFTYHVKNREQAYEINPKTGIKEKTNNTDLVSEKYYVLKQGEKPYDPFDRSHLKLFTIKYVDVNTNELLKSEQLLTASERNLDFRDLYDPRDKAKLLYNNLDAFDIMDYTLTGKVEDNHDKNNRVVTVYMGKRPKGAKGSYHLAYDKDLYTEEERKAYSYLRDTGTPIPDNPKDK
# assay info: viability-normalized secreted streptokinase activity reduction – plasminogen activation absorbance, OD405, dose response (AID 1914);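 note: secreted streptokinase activity via plasminogen activation per viability signal from cell pellet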
# Format: functional, Streptococcus pyogenes M1 GAS
Active and inactive are the calls of the source. Cut-off read from the data, not from the text of the source: actives have a measured EC50 and inactives only a lower limit.
parameter: EC50

QUERY: Fill in: EC50 on Streptokinase A (Streptococcus pyogenes serotype M1), entry `CCOC(=O)c1cnc(-n2nc(C)cc2C)nc1Nc1ccc(C)cc1`
RESULT: > 150 µM (not active)

QUERY: Fill in EC50 for `Cc1nn(Cc2c(Cl)cccc2Cl)c(C)c1NC(=O)c1cn(-c2ccccc2)nc1-c1ccccc1` tested with Streptokinase A (Streptococcus pyogenes serotype M1).
RESULT: > 150 µM (not active)

QUERY: Consider the molecule `Cc1ccc(/C=C/C(=O)NC(=S)Nc2ccc(S(=O)(=O)Nc3cc(C)on3)cc2)cc1` tested on Streptokinase A (Streptococcus pyogenes serotype M1); state its EC50.
RESULT: 27.1 µM (inconclusive)

QUERY: # assay system Streptokinase A (Streptococcus pyogenes serotype M1): give EC50 of Cc1nn(-c2ccccc2)c2c1C(c1ccc(O)c(O)c1)N1C(=N2)C(Nc2ccccc2)=Nc2ccccc21 (stereo not given)
RESULT: 1.53 µM (active)

QUERY: Consider the molecule `COCCCN1C(=O)/C(=C/c2ccc(CNS(=O)(=O)c3ccccc3)o2)C(C(=O)OC)=C1C` tested on Streptokinase A (Streptococcus pyogenes serotype M1); state its EC50.
RESULT: > 150 µM (not active)

QUERY: // fetch EC50; item: `O=C(NNC(=S)NC(=O)c1ccccc1)c1ccc(O)cc1` ; system: Streptokinase A (Streptococcus pyogenes serotype M1)
RESULT: > 150 µM (not active)

QUERY: Please indicate recorded EC50 of `COc1ccc(Cc2nnc(S)n2NC(=O)Nc2ccc(Cl)c(Cl)c2)cc1` measured with Streptokinase A (Streptococcus pyogenes serotype M1).
RESULT: 20.3 µM (active)

QUERY: Report its EC50 with Streptokinase A (Streptococcus pyogenes serotype M1) as the test system: `C[C@H]1COC2=C1C(=O)C(=O)c1c2ccc2c1CCCC2(C)C`
RESULT: 14.8 µM (active)

QUERY: Determine reported EC50 for `CCCN1CCc2c(sc(NC(=O)c3ccc(S(=O)(=O)N4CCN(C(=O)OCC)CC4)cc3)c2C(N)=O)C1` ; test system: Streptokinase A (Streptococcus pyogenes serotype M1).
RESULT: > 150 µM (not active)

QUERY: Tell me EC50 of `COc1ccc(OC)c(CCNC(=O)C(=O)Nc2ccc3nc4n(c(=O)c3c2)CCCCC4)c1` when tested on Streptokinase A (Streptococcus pyogenes serotype M1).
RESULT: 16.6 µM (active)

QUERY: State recorded EC50 with Streptokinase A (Streptococcus pyogenes serotype M1), entry `O=S(=O)(NCc1nnc2c(C(F)(F)F)cc(Cl)cn12)c1ccccc1` , no comment.
RESULT: > 150 µM (not active)

QUERY: Give EC50 only, for `CCn1cc(C(=O)NC(=S)Nc2ccccc2Br)cn1` , using Streptokinase A (Streptococcus pyogenes serotype M1) data.
RESULT: > 150 µM (not active)

QUERY: Tell me EC50 of `CCCCCCCCCCOC(=O)C[n+]1c(COc2ccc(C)cc2)n(C)c2ccccc21` when tested on Streptokinase A (Streptococcus pyogenes serotype M1).
RESULT: > 150 µM (not active)

QUERY: Fill in EC50 for Cc1ccc2ccc(C(Nc3ccccn3)c3ccccc3)c(O)c2n1 (stereo not given) tested with Streptokinase A (Streptococcus pyogenes serotype M1).
RESULT: > 150 µM (not active)

QUERY: For Streptokinase A (Streptococcus pyogenes serotype M1), give the measured EC50 of the entry `COc1ccc(C(=O)Nc2nnc(-c3ccccc3)o2)cc1OC`
RESULT: > 150 µM (not active)
